Consider the following molecules; for each one, report its MIC.
Tested on: engineered E. coli strain expressing KPC-3^D179Y
Assay: microbe, parasite or virus in culture
Type: cell-based
Settings: Escherichia coli, BLIs at fixed 4 μg/mL

Lab note: C[C@@H](O)[C@H]1C(=O)N2C(C(=O)O)=C(S[C@@H]3CN[C@H](C(=O)N(C)C)C3)[C@H](C)[C@H]12 [MEM, meropenem] gave MIC of 0.12 µg/mL

Lab note: Nc1nc(/C(=C/CC(=O)O)C(=O)N[C@@H]2C(=O)N3C(C(=O)O)=CCS[C@H]23)cs1 [CTB, ceftibuten] gave MIC of 32 µg/mL

Lab note: CC(C)(O/N=C(\C(=O)N[C@@H]1C(=O)N2C(C(=O)[O-])=C(C[n+]3ccccc3)CS[C@H]12)c1csc(N)n1)C(=O)O [CAZ, ceftazidime] gave MIC of > 256 µg/mL

Lab note: CO/N=C(\C(=O)N[C@@H]1C(=O)N2C(C(=O)[O-])=C(C[N+]3(C)CCCC3)CS[C@H]12)c1csc(N)n1 [FEP, cefepime] gave MIC of 32 µg/mL

----------
Tested on: engineered E. coli strain expressing KPC-3 wt
Experiment: microbe, parasite or virus in culture
Assay type: cell-based
Conditions: Escherichia coli; KPC-3 wt strain; BLIs at fixed 4 μg/mL
Consider the following compounds; for each one, report its MIC.
Numbers only here, please. The scale is µg/mL.

The value of MIC recorded for CO/N=C(\C(=O)N[C@@H]1C(=O)N2C(C(=O)[O-])=C(C[N+]3(C)CCCC3)CS[C@H]12)c1csc(N)n1 [FEP, cefepime] when tested on engineered E. coli strain expressing KPC-3 wt reads 128

The value of MIC recorded for Nc1nc(/C(=C/CC(=O)O)C(=O)N[C@@H]2C(=O)N3C(C(=O)O)=CCS[C@H]23)cs1 when tested on engineered E. coli strain expressing KPC-3 wt reads 32

The value of MIC recorded for C[C@@H](O)[C@H]1C(=O)N2C(C(=O)O)=C(S[C@@H]3CN[C@H](C(=O)N(C)C)C3)[C@H](C)[C@H]12 when tested on engineered E. coli strain expressing KPC-3 wt reads 16

The value of MIC recorded for CC(C)(O/N=C(\C(=O)N[C@@H]1C(=O)N2C(C(=O)[O-])=C(C[n+]3ccccc3)CS[C@H]12)c1csc(N)n1)C(=O)O when tested on engineered E. coli strain expressing KPC-3 wt reads 256

----------
Target: KPC-3 WT (Klebsiella pneumoniae, UniProt Q9F663, H272Y)
Assay: Inhibition kinetics (CENTA hydrolysis, jump dilution), KPC-3 wt
Settings: estimated from ratio koff / k2/K
Consider the following compounds; for each one, report its pKd.
Scale for pKd: -log10 of concentration given in mol/L; no unit attached.

Lab note: CCC(=O)N[C@H]1Cc2cccc(C(=O)O)c2OB1O gave pKd of 6.66

Lab note: NCCN[C@H]1CC[C@H](CC(=O)N[C@H]2Cc3cccc(C(=O)O)c3OB2O)CC1 gave pKd of 8.05

----------
Biological target: KPC-3^D179Y (Klebsiella pneumoniae, UniProt Q9F663, D178Y/H272Y)
Assay: biochemical
Details: ND = no significant inhibition at the highest concentration tested, read-out: Apparent affinity Ki^app
PROPERTY NAME: pKi
Scale for pKi: -log10 of concentration given in mol/L; no unit attached.

Lab note: CO/N=C(\C(=O)N[C@@H]1C(=O)N2C(C(=O)[O-])=C(C[N+]3(C)CCCC3)CS[C@H]12)c1csc(N)n1 [FEP, cefepime] gave pKi of 2.98

----------
Consider the following compounds; for each one, report its pKd.
Target: KPC-3^V240G (Klebsiella pneumoniae, UniProt Q9F663, H272Y/V239G)
Assay: Inhibition kinetics (CENTA hydrolysis, jump dilution), KPC-3 V240G
Details: estimated from ratio koff / k2/K
Scale for pKd: -log10 of concentration given in mol/L; no unit attached.

The value of pKd recorded for NCCN[C@H]1CC[C@H](CC(=O)N[C@H]2Cc3cccc(C(=O)O)c3OB2O)CC1 [TAN, taniborbactam] when tested on KPC-3^V240G (Klebsiella pneumoniae, UniProt Q9F663, H272Y/V239G) reads 7.74

The value of pKd recorded for CCC(=O)N[C@H]1Cc2cccc(C(=O)O)c2OB1O [LED, ledaborbactam] when tested on KPC-3^V240G (Klebsiella pneumoniae, UniProt Q9F663, H272Y/V239G) reads 7.34

----------
Biological target: KPC-3 WT (Klebsiella pneumoniae, UniProt Q9F663, H272Y)
Assay: biochemical
Conditions: inhibition of CENTA hydrolysis, read-out: Apparent affinity Ki^app
Consider the following compounds; for each one, report its pKi.
Scale for pKi: -log10 of concentration given in mol/L; no unit attached.

Lab note: CO/N=C(\C(=O)N[C@@H]1C(=O)N2C(C(=O)[O-])=C(C[N+]3(C)CCCC3)CS[C@H]12)c1csc(N)n1 [FEP, cefepime] gave pKi of 3.56

Lab note: Nc1nc(/C(=C/CC(=O)O)C(=O)N[C@@H]2C(=O)N3C(C(=O)O)=CCS[C@H]23)cs1 [CTB, ceftibuten] gave pKi of 3.43
